- TARGET_ENTITY: EGFR (Homo sapiens (Human))
- ASSAY_TEXT: Inhibition of EGFR autophosphorylation in A431 human epithelial cells stimulated with epithelial growth factor
- CONDITIONS_USED: 16 hours compound, EGF 60 ng/mL 10 minutes, read-out: A431 p-EGFR IC50
IC50: recorded values
OBSERVED_PROPERTY: IC50

• C=CC(=O)N1CCC(c2cc3cc(C4CC4)ccc3c(=O)n2-c2cccc(-c3cc(N)c(=O)n(C)c3)c2CO)C1 (stereo not shown) = > 10 µM
• C=CC(=O)N1CC(c2cc3cc(C4CC4)ccc3c(=O)n2-c2cccc(-c3cc(C(N)=O)n(C)c3)c2CO)C1 (single isomer, unassigned) [Example 43] = > 10 µM
• C=CC(=O)N1CC(c2cc3cc(C4CC4)ccc3c(=O)n2-c2cccc(-c3cc(N)c(=O)n(C)c3)c2CO)C1 = > 10 µM
• C=CC(=O)N1CC(Cc2cc3cc(C4CC4)ccc3c(=O)n2-c2cccc(-c3cc(N)ncn3)c2CO)C1 = > 10 µM

* * *

log10 of IC50: recorded values
- TARGET_ENTITY: BTK (Homo sapiens (Human))
- ASSAY_TEXT: Inhibition of IL-6 production in B cells co-stimulated with ODN 2006 and anti-hIgD
- CONDITIONS_USED: primary CD19+ B cells, anti-human IgD + ODN 2006 stimulation, 18-24 hours; read-out: B-cell IL-6 IC50
OBSERVED_PROPERTY: log10 of IC50 (log10 of the value in nM)

• C=CC(=O)N(C)Cc1cc2cc(C3CC3)ccc2c(=O)n1-c1cccc(-c2cc(C(N)=O)n(C)c2)c1CO = 2.20
• C=CC(=O)N1CC(c2cc3cc(C4CC4)ccc3c(=O)n2-c2cccc(-c3cccc(C(N)=O)c3)c2CO)C1 = 2.00
• C=CC(=O)N1CC(c2cc3cc(C4CC4)ccc3c(=O)n2-c2cccc(-c3cc(N)c(=O)n(C)c3)c2CO)C1 = 1.32
• C=CC(=O)N1CCC1Cc1cc2cc(C3CC3)ccc2c(=O)n1-c1cccc(-c2cc(C(N)=O)n(C)c2)c1CO (stereo not shown) = 1.20
• C=CC(=O)N1CC(c2cc3cc(C4CC4)ccc3c(=O)n2-c2cccc(-c3cc(N)ncn3)c2CO)C1 = 0.28
• C=CC(=O)N1CC(c2cc3cc(C4CC4)ccc3c(=O)n2-c2cccc(-c3ccnc(N)c3)c2Cl)C1 = 1.57
• C=CC(=O)N1CC(c2cc3cc(C4CC4)ccc3c(=O)n2-c2cccc(-c3ccnc(N)c3)c2CO)C1 = 0.57

* * *

- TARGET_ENTITY: BTK (Homo sapiens (Human), UniProt Q06187)
- ASSAY_TEXT: Inhibition of IL-6 production in B cells co-stimulated with ODN 2006 and anti-hIgD
- CONDITIONS_USED: primary CD19+ B cells, anti-human IgD + ODN 2006 stimulation, 18-24 hours; read-out: B-cell IL-6 IC50
pIC50: −log10 of the molar value.
pIC50: recorded values
OBSERVED_PROPERTY: pIC50

* C=CC(=O)N1CC(Cc2cc3cc(C4CC4)ccc3c(=O)n2-c2cccc(-c3cc(N)ncn3)c2CO)C1 [Example 14] | 7.07
* CC#CC(=O)N1CC(Cc2cc3cc(C4CC4)ccc3c(=O)n2-c2cccc(-c3cc(C(N)=O)n(C)c3)c2CO)C1 [Example 8] | 7.02
* C=CC(=O)N1CC(c2cc3cc(C4CC4)ccc3c(=O)n2-c2cccc(-c3cc(C(N)=O)n(C)c3)c2CO)C1 [Example 7] | 8.25
* C=CC(=O)N1CCC(c2cc3cc(C4CC4)ccc3c(=O)n2-c2cccc(-c3cc(C(N)=O)n(C)c3)c2CO)C1 (stereo not shown) [Example 13] | 7.92
* C=CC(=O)N1CC(c2cc3cc(C4CC4)ccc3c(=O)n2-c2cccc(-c3cc(C(N)=O)n(C)c3)c2CO)C1 (single isomer, unassigned) [Example 43] | 8.44
* C=CC(=O)N1CC(c2cc3cc(C4CC4)ccc3c(=O)n2-c2cccc(-c3ccnc(NC)c3)c2CO)C1 [Example 15] | 8.06
* C=CC(=O)N1CC(Cc2cc3cc(C4CC4)ccc3c(=O)n2-c2cccc(-c3cc(C(N)=O)n(C)c3)c2CO)C1 [Example 2] | 7.44

* * *

pIC50: −log10 of the molar value.
The compounds below have reported pIC50 for human full length His-tagged BTK (Homo sapiens (Human)).
OBSERVED_PROPERTY: pIC50

• N#CN1CC(c2cc3cc(C4CC4)ccc3c(=O)n2-c2cccc(-c3cccc(C(N)=O)c3)c2CO)C1 = 8.30
• CC#CC(=O)N(C)Cc1cc2cc(C3CC3)ccc2c(=O)n1-c1cccc(-c2cc(C(N)=O)n(C)c2)c1CO = 6.28
• C=CC(=O)N1CC(c2cc3cc(C4CC4)ccc3c(=O)n2-c2cccc(-c3ccnc(N)c3)c2Cl)C1 = 8.05
• C/C=C/C(=O)N1CC(c2cc3cc(C4CC4)ccc3c(=O)n2-c2cccc(-c3ccnc(NC)c3)c2CO)C1 = 6.36
• CN(C#N)Cc1cc2cc(C3CC3)ccc2c(=O)n1-c1cccc(-c2cc(N)c(=O)n(C)c2)c1CO = 6.31
• C=CC(=O)N1CC(c2cc3cc(C4CC4)ccc3c(=O)n2-c2cccc(-c3cc(C(N)=O)n(C)c3)c2CO)C1 = 9.15
• C=CC(=O)N1CC(Cc2cc3cc(C4CC4)ccc3c(=O)n2-c2cccc(-c3ccc4cncn4c3)c2CO)C1 = 6.51
• Cn1cc(-c2cccc(-n3c(C4CN(C#N)C4)cc4cc(C5CC5)ccc4c3=O)c2CO)cc(N)c1=O = 8.59
• C=CC(=O)N1CCC1Cc1cc2cc(C3CC3)ccc2c(=O)n1-c1cccc(-c2cc(C(N)=O)n(C)c2)c1CO (stereo not shown) = 8.41
• C=CC(=O)N1CC(Cc2cc3cc(C4CC4)cc(OC)c3c(=O)n2-c2cccc(-c3cc(C(N)=O)n(C)c3)c2CO)C1 = 6.60
• C=CC(=O)N1CC(Cc2cc3cc(C4CC4)ccc3c(=O)n2-c2cccc(-c3ccnc(NC)c3)c2CO)C1 = 6.29
• N#CN1CC(c2cc3cc(C4CC4)ccc3c(=O)n2-c2cccc(-c3cc(N)ncn3)c2CO)C1 = 8.48
• C=CC(=O)N(C)Cc1cc2cc(C3CC3)ccc2c(=O)n1-c1cccc(-c2cc(C(N)=O)n(C)c2)c1CO = 7.23

* * *

pIC50: recorded values
- TARGET_ENTITY: UniProtKB Q06187
- ASSAY_TEXT: Inhibition of IL-6 production in B cells co-stimulated with ODN 2006 and anti-hIgD
- CONDITIONS_USED: primary CD19+ B cells, anti-human IgD + ODN 2006 stimulation, 18-24 hours; read-out: B-cell IL-6 IC50
pIC50: −log10 of the molar value.
OBSERVED_PROPERTY: pIC50

• Cn1cc(-c2cccc(-n3c(C4CN(C#N)C4)cc4cc(C5CC5)ccc4c3=O)c2CO)cc1C(N)=O [Example 1] = 8.37
• C=CC(=O)N1CC(c2cc3cc(C4CC4)cc(F)c3c(=O)n2-c2cccc(-c3cc(C(N)=O)n(C)c3)c2CO)C1 [Example 40] = 8.34
• N#CN1CC(c2cc3cc(C4CC4)ccc3c(=O)n2-c2cccc(-c3cc(N)ncn3)c2CO)C1 [Example 12] = 7.55
• C=CC(=O)N1CCC(c2cc3cc(C4CC4)ccc3c(=O)n2-c2cccc(-c3cc(N)c(=O)n(C)c3)c2CO)C1 (stereo not shown) [Example 16] = 7.04

* * *

- TARGET_ENTITY: human full length His-tagged BTK (Homo sapiens (Human), UniProt Q06187)
- Sequence (Q06187 whole entry): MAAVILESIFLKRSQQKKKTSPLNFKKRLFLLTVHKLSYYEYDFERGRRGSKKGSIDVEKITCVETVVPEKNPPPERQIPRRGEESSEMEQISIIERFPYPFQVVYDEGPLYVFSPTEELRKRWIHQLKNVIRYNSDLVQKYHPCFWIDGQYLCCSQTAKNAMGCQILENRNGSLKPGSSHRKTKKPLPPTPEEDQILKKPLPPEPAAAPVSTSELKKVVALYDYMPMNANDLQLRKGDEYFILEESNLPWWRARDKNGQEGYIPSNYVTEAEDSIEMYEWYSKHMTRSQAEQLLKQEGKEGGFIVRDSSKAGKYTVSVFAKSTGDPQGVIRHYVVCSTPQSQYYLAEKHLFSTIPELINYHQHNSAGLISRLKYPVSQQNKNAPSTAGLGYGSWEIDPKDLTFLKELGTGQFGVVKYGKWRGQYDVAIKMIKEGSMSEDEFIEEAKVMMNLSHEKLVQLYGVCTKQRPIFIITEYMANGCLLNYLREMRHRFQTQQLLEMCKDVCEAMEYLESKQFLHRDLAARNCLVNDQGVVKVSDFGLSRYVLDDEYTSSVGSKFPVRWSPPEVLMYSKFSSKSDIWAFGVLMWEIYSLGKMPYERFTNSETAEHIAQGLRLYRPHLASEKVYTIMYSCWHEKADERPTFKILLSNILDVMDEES
OBSERVED_PROPERTY: IC50 (nM)

* C=CC(=O)N1CC(c2cc3cc(C4CC4)ccc3c(=O)n2-c2cccc(-c3cccc(C(N)=O)c3)c2CO)C1 | 5.2
* CC#CC(=O)N1CC(c2cc3cc(C4CC4)ccc3c(=O)n2-c2cccc(-c3cc(C(N)=O)n(C)c3)c2CO)C1 | 64
* C=CC(=O)N1CC(c2cc3cc(C4CC4)ccc3c(=O)n2-c2cccc(-c3ccnc(NC)c3)c2CO)C1 | 4.2
* C=CC(=O)N1CC(c2cc3cc(C4CC4)ccc3c(=O)n2-c2cccc(-c3cc(N)ncn3)c2CO)C1 | 0.48

* * *

- TARGET_ENTITY: EGFR (Homo sapiens (Human), UniProt P00533)
- Sequence (P00533 25-1210): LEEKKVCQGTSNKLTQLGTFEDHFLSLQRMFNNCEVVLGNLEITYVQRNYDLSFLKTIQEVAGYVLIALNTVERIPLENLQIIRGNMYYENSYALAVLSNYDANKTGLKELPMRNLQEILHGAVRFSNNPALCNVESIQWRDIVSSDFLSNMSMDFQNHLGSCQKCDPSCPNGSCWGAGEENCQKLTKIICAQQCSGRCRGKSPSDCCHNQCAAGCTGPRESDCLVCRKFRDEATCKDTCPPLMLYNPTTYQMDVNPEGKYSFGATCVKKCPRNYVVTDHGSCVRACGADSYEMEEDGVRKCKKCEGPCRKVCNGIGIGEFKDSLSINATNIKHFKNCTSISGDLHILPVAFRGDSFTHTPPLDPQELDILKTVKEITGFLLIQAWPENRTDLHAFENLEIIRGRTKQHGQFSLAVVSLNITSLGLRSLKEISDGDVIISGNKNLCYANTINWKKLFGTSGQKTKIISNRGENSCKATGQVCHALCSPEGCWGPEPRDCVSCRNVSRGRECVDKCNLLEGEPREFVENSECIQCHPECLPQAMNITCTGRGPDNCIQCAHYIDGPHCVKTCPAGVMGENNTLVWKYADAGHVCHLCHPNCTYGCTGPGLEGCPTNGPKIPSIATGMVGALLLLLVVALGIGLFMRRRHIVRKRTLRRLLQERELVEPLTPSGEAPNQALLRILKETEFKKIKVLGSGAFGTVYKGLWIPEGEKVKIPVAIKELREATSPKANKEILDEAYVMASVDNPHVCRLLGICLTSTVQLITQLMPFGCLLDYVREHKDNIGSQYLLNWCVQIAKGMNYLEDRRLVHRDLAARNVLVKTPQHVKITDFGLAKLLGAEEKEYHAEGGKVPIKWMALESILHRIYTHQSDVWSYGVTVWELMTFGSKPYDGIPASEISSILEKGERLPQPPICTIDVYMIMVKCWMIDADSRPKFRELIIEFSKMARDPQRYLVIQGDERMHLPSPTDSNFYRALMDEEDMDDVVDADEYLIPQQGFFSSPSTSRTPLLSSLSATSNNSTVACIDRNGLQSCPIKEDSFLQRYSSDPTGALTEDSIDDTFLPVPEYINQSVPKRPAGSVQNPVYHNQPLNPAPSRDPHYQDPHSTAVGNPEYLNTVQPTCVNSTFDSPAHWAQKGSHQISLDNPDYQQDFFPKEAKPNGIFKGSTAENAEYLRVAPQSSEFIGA
- ASSAY_TEXT: Inhibition of EGFR autophosphorylation in A431 human epithelial cells stimulated with epithelial growth factor
- CONDITIONS_USED: 16 hours compound, EGF 60 ng/mL 10 minutes, read-out: A431 p-EGFR IC50
- Procedure: Inhibition of EGFR Autophosphorylation in A431 Human Epithelial Cells Stimulated with Epithelial Growth Factor A431 cells (ATCC # CRL-1555 FZ) are thawed and plated in DMEM containing 10% FBS in a 384-well tissue culture treated plate at 15,000 cells/well. […] The medium is removed, the cells are lysed, and phospho EGFR is measured (Meso Scale Diagnostics, N31CB-1). […]
pIC50: −log10 of the molar value.
OBSERVED_PROPERTY: pIC50

- C=CC(=O)N1CC(c2cc3cc(C4CC4)cc(F)c3c(=O)n2-c2cccc(-c3cc(C(N)=O)n(C)c3)c2CO)C1 [Example 40]: < 5.00
- C=CC(=O)N1CC(c2cc3cc(C4CC4)ccc3c(=O)n2-c2cccc(-c3ccnc(N)c3)c2CO)C1 [Example 17]: < 5.00
- C=CC(=O)N1CC(c2cc3cc(C4CC4)ccc3c(=O)n2-c2cccc(-c3ccnc(NC)c3)c2CO)C1 [Example 15]: < 5.00
- C=CC(=O)N(C)Cc1cc2cc(C3CC3)ccc2c(=O)n1-c1cccc(-c2cc(C(N)=O)n(C)c2)c1CO [Example 18]: < 5.00
- C=CC(=O)N1CCC(c2cc3cc(C4CC4)ccc3c(=O)n2-c2cccc(-c3cc(C(N)=O)n(C)c3)c2CO)C1 (centres unmarked) [Example 13]: < 5.00
- CC#CC(=O)N1CC(Cc2cc3cc(C4CC4)ccc3c(=O)n2-c2cccc(-c3cc(C(N)=O)n(C)c3)c2CO)C1 [Example 8]: < 5.00
- C=CC(=O)N1CC(c2cc3cc(C4CC4)ccc3c(=O)n2-c2cccc(-c3cc(N)ncn3)c2CO)C1 [Example 21]: < 5.00
- N#CN1CC(c2cc3cc(C4CC4)ccc3c(=O)n2-c2cccc(-c3cc(N)ncn3)c2CO)C1 [Example 12]: 5.35
- Cn1cc(-c2cccc(-n3c(C4CN(C#N)C4)cc4cc(C5CC5)ccc4c3=O)c2CO)cc1C(N)=O [Example 1]: 5.33
- C=CC(=O)N1CC(Cc2cc3cc(C4CC4)ccc3c(=O)n2-c2cccc(-c3cc(C(N)=O)n(C)c3)c2CO)C1 [Example 2]: < 5.00
- C=CC(=O)N1CC(c2cc3cc(C4CC4)ccc3c(=O)n2-c2cccc(-c3cccc(C(N)=O)c3)c2CO)C1 [Example 5]: < 5.00
- C=CC(=O)N1CCC1Cc1cc2cc(C3CC3)ccc2c(=O)n1-c1cccc(-c2cc(C(N)=O)n(C)c2)c1CO (centres unmarked) [Example 6]: 5.35
- C=CC(=O)N1CC(c2cc3cc(C4CC4)ccc3c(=O)n2-c2cccc(-c3cc(C(N)=O)n(C)c3)c2CO)C1 [Example 7]: < 5.00
- C=CC(=O)N1CC(c2cc3cc(C4CC4)ccc3c(=O)n2-c2cccc(-c3ccnc(N)c3)c2Cl)C1 [Example 20]: 5.49
